- details: buffer; pH 7.4; 200.0 µM
measured_metric: solubility kinetic

Some compounds with recorded solubility kinetic:
compound: Cc1ccc[n+](CC(=O)c2ccc(Cl)cc2)c1.[Cl-]
solubility kinetic: > 42.3 µg/mL
//
compound: Cc1cccc2c3c([nH]c12)CCN(C)C3
solubility kinetic: > 30 µg/mL
//
compound: CN1N=C(C(=O)Nc2ccc3c(c2)CCC3)CCC1=O
solubility kinetic: > 40.7 µg/mL

Just so you know, measured solubility kinetic for `CC(=O)c1sc(-c2ccc(Cl)cc2)nc1C` came out at < 0.5 µg/mL

Briefly, solubility kinetic measured for `CCc1cccc(NC(=O)CCCN2C(=O)NC(C)(C)C2=O)c1` : > 47.6 µg/mL

Short answer for COc1cccc(CNC(=O)CCN2C(=S)NC(C)(C)CC2C)c1 (centres undefined) : solubility kinetic was > 52.4 µg/mL

In plain terms, `COCCNC(=O)Cn1cc(/C=C(\C#N)C(=O)NC2CC2)c2ccccc21` has a documented solubility kinetic of > 55 µg/mL

Looking up `O=C(Nc1cccc(Cl)c1)c1cnc[nH]1` , I see its solubility kinetic listed as > 33.2 µg/mL
